Molecular target: human recombinant HDAC6 (Homo sapiens)
Construct: purchased Calbiochem Inc. 382180
Sequence (Q9UBN7 whole entry): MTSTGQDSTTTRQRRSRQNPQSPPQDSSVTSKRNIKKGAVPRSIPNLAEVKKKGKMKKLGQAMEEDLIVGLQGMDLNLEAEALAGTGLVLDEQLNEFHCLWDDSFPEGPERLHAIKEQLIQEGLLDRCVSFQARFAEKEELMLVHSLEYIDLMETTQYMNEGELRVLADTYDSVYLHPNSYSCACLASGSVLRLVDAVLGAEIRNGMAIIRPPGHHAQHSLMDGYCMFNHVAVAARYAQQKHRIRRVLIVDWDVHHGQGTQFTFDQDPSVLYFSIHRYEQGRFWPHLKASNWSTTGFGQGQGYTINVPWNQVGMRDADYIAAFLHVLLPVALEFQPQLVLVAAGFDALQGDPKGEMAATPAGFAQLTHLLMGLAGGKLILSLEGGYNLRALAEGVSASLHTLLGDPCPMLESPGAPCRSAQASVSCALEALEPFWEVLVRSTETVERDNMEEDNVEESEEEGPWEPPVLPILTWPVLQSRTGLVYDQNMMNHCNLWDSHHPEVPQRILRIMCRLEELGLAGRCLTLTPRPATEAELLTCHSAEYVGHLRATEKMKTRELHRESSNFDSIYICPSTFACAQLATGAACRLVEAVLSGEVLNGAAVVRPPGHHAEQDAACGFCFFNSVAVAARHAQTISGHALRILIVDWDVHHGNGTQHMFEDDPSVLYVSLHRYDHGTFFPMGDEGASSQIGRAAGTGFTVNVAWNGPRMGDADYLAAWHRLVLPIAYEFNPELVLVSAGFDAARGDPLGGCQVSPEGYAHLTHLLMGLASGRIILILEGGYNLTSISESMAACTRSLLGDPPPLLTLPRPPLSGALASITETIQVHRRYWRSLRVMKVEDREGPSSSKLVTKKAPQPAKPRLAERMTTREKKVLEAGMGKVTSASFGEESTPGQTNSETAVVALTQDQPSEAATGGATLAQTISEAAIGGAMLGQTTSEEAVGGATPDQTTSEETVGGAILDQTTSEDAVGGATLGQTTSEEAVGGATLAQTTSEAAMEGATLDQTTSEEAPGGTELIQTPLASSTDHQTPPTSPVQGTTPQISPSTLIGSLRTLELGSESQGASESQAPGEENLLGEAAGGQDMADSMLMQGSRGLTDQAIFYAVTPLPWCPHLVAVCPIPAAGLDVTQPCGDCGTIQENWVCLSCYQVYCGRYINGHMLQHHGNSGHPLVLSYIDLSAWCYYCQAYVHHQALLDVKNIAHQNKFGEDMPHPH
Experiment: In vitro HDAC enzyme activity inhibition assay, HDAC6 (HDAC Fluorimetric Drug Discovery Kit)
Assay type: biochemical
Settings: HDAC6 versus HDAC1
Measure: HDAC6 Selectivity (fold)

O=C(C1CCN(C2CCC(F)(F)CC2)CC1)N(Cc1cn2ccc(-c3nnc(C(F)F)o3)cc2n1)c1ccccc1 : 122
O=C(N1CCN(c2ncccn2)CC1)N(Cc1cn2ccc(-c3nnc(C(F)F)o3)cc2n1)c1cccc(F)c1 : 464
O=C(C1CN(C(=O)C(F)(F)F)C1)N(Cc1cn2ccc(-c3nnc(C(F)F)o3)cc2n1)c1ccccc1 : 184
O=C(N1CCN(C2CCC2)CC1)N(Cc1cn2ccc(-c3nnc(C(F)F)o3)cc2n1)c1cccc(F)c1 : 214
O=C(C1CCN(C2CCOCC2)CC1)N(Cc1cn2ccc(-c3nnc(C(F)F)o3)cc2n1)c1cccc(F)c1 : 206

P = CC(C)N1CCC(C(=O)N(Cc2cn3ccc(-c4nnc(C(F)F)o4)cc3n2)c2ccccc2)CC1
Q = O=C(C1CCN(c2ccccn2)CC1)N(Cc1cn2ccc(-c3nnc(C(F)F)o3)cc2n1)c1ccccc1
R = O=C(C1CN(c2ccccn2)C1)N(Cc1cn2ccc(-c3nnc(C(F)F)o3)cc2n1)c1cccc(F)c1
S = CC(C)(C)OC(=O)N1CCN(C(=O)N(Cc2cn3ccc(-c4nnc(C(F)(F)F)o4)cc3n2)c2cccc(F)c2)CC1
**Query** Sort the 4 molecules by HDAC6 Selectivity (fold); largest first, smallest last. Labels, requested order.
**Result** R, P, Q, S
